tested on: Cotinine MAb 3B11A4; assay: Competitive microplate ELISA (test principle #1) with immobilized COT MAb and COT-HRP tracer; assay type: binding; details: competitor vs COT-HRP for Cotinine MAb 3B11A4
// reported IC50 for each item listed

Recorded results for 3 compounds are shown here.
Compound: Cn1cccc1-c1cccnc1
IC50: >5,000 ng/mL

Compound: CN1CCCC1c1ccc[n+]([O-])c1 (stereo not shown) [Nicotine-N-Oxide, Nicotine-N-oxide]
IC50: >5,000 ng/mL

Compound: c1cncc(-c2ccnc(-c3cccnc3)c2)c1
IC50: >5,000 ng/mL

// recorded IC50 for CN1CCC[C@H]1c1ccc[n+]([C@@H]2O[C@H](C(=O)[O-])[C@@H](O)[C@H](O)[C@H]2O)c1 [Nicotine-gluconuride, Nicotine-glucuronide] : >5,000 ng/mL

Lab book: IC50 of C1=CCC(c2cccnc2)NC1 (stereo not shown) noted as >5,000 ng/mL

So, CN1C(=O)CC[C@@]1(O)c1cccnc1 [5-Hydroxycotinine] ? Its IC50 was 1505.2 ng/mL

Briefly, IC50 measured for c1cncc([C@@H]2CCCN2)c1 : >5,000 ng/mL

What the record says about CN1C(=O)C(O[C@@H]2O[C@H](C(=O)O)[C@@H](O)[C@H](O)[C@H]2O)CC1c1cccnc1 (stereo partly shown) [3-Hydroxycotinine-gluconuride, 3-hydroxycotinine-glucuronide] : IC50 is >5,000 ng/mL

The compound identified as CN1C(=O)C(O)C[C@H]1c1cccnc1 (stereo partly shown) [3-Hydroxycotinine] registered its IC50 at 3545.0 ng/mL

Lab book: IC50 of CN1C(=O)CC[C@H]1c1ccc[n+]([O-])c1 [Cotinine-N-Oxide, cotinine-N-oxide] noted as >5,000 ng/mL

For reference, reported IC50 for c1cncc(C2=NCCCC2)c1 stands at >5,000 ng/mL

So, CN1CCCC1c1cccnc1 (stereo not shown) ? Its IC50 was >5,000 ng/mL

The recorded IC50 for CN1C(=O)CCC1c1ccc[n+](C2OC(C(=O)[O-])C(O)C(O)C2O)c1 (stereo not shown) [Cotinine-gluconuride, cotinine-glucuronide] is >5,000 ng/mL

The measurements presented in this section are drawn from patent US20110305715A1.
